- Test system: K86415-001-R-J1-PDC complex spheroids, viability;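 note: spheroids exposed to agents for seven days before readout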
- measurement description: Anticancer human tumor K86415-001-R-J1-PDC patient-derived lung adenocarcinoma cell line growth inhibition [RAS]
- condition notes: curve of first compound; second compound 0.0949 µM
pIC50: −log10 of the molar value.
reported metric: pIC50

CC1(O)CCCC1n1c(=O)c(C(F)F)cc2cnc(NC3CCN(S(C)(=O)=O)CC3)nc21 (configuration not stated) + CCn1c(-c2cccnc2C(C)OC)c2c3cc(ccc31)N1CCOC(CC(NC(=O)C(C(C)C)N(C)C(=O)C3(F)CCN(C(=O)C#CC(C)(C)N(C)C)CC3)C(=O)N3CCCC(N3)C(=O)OCC(C)(C)C2)C1 | > 7.50

Task: What value of pIC50 has been recorded for this entry: CCC(CC)c1cc(NC2CCC(N)C2)n2nccc2n1 (configuration not stated) + CCn1c(-c2cc(N3CCN(C)CC3)cnc2C(C)OC)c2c3cc(ccc31)-c1csc(n1)CC(NC(=O)C1CC1C)C(=O)N1CCCC(N1)C(=O)OCC(C)(C)C2
Result: > 7.50
